# System: NCI-H522
# experimental protocol: NCI-60 SRB screen
# Type: cell-based, human
# condition description: Homo sapiens; NCI-H522; single dose 10^−5 M; read-out: Growth inhibition (%)
readout: inhibition at 10 µM (%)
Numbers only, in %.

[[record]]
compound = "COc1ccc(C2NC(=O)C(C#N)c3c2sc2c(F)cccc32)c(OC)c1 (centres unmarked) [Compound 5a]"
readout = "inhibition at 10 µM"
recorded_measurement = 92


Count: 4. Required value per item: inhibition at 10 µM.
1. O=C1C(=Cc2ccccc2[N+](=O)[O-])Sc2c(F)cccc21 [Compound 2c]
2. CCN1CCN(C2C(=O)NC(c3cccc([N+](=O)[O-])c3)c3sc4c(F)cccc4c32)CC1 (centres unmarked) [Compound 6a]
3. O=[N+]([O-])c1cccc(C2NC(Cl)=C(Cl)c3c2sc2c(F)cccc32)c1 (centres unmarked) [Compound 7a]
4. O=C1NC(c2cccc([N+](=O)[O-])c2)c2sc3c(F)cccc3c2C1Cl (centres unmarked) [Compound 4d]

1: 2.94; 2: 0.67; 3: 12.7; 4: 8.55

###

# Tested on: prostate cancer cell line (PC-3)
# experimental protocol: MTT cytotoxicity assay
# Assay type: cell-based, human
# condition description: Homo sapiens
readout: IC50 (µM)
Numbers only, in µM.

Illustrative cases are given below, each with its answer.
[[record]]
molecule = "CN[C@@H]1C[C@H]2O[C@@](C)([C@@H]1OC)n1c3ccccc3c3c4c(c5c6ccccc6n2c5c31)C(=O)NC4 [staurosporine, reference compound]"
recorded_measurement = 5.1

[[record]]
molecule = "N#CC1C(=O)NC(c2ccccc2[N+](=O)[O-])c2sc3c(F)cccc3c21 (stereo not drawn)"
recorded_measurement = 2.08


Consider the molecule shown here: C[C@]12CC[C@H](O)CC1=CC[C@@H]1[C@@H]2CC[C@]2(C)C(c3cccnc3)=CC[C@@H]12 [Abiraterone, abiraterone, reference compound] What is its recorded IC50? 8.3

###

# System: SK-MEL-5
# experimental protocol: NCI-60 SRB screen
# Type: cell-based, human
# condition description: Homo sapiens; SK-MEL-5; single dose 10^−5 M; read-out: Growth inhibition (%)
readout: inhibition at 10 µM (%)
Numbers only, in %.

[[record]]
molecule = "O=[N+]([O-])c1cccc(C2NC(Cl)=C(Cl)c3c2sc2c(F)cccc32)c1 (stereo not drawn)"
readout = "inhibition at 10 µM"
units_of_measure = "%"
recorded_measurement = 1.94

[[record]]
molecule = "O=C1NC(c2cccc([N+](=O)[O-])c2)c2sc3c(F)cccc3c2C1Cl (stereo not drawn)"
readout = "inhibition at 10 µM"
units_of_measure = "%"
recorded_measurement = 4.05

[[record]]
molecule = "COc1ccc(C2NC(=O)C(Cl)c3c2sc2c(F)cccc32)cc1 (stereo not drawn)"
readout = "inhibition at 10 µM"
units_of_measure = "%"
recorded_measurement = -0.07

[[record]]
molecule = "COc1ccc(C2NC(=O)C(C#N)c3c2sc2c(F)cccc32)c(OC)c1 (stereo not drawn)"
readout = "inhibition at 10 µM"
units_of_measure = "%"
recorded_measurement = 18.2


Dear reader, for each entry below, please note its inhibition at 10 µM.
1. N#CC1C(=O)NC(c2ccccc2[N+](=O)[O-])c2sc3c(F)cccc3c21 (stereo not drawn)
2. COc1ccc(C=C2Sc3c(F)cccc3C2=O)c(OC)c1

24.9
-2.91

###

# Test system: A549/ATCC
# experimental protocol: NCI-60 SRB screen;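 note: half-maximal inhibitory concentration read as cell viability unlike GI50 net growth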
# Assay type: cell-based, human
# condition description: Homo sapiens, five dose
readout: IC50
Output should be the measured figure followed by the unit it is expressed in.

Using the record for N#CC1C(=O)NC(c2ccccc2[N+](=O)[O-])c2sc3c(F)cccc3c21 (stereo not shown) , report its IC50. 2340 nM

###

# Test system: A498
# experimental protocol: NCI-60 SRB screen
# Format: cell-based, human
# condition description: Homo sapiens; A498; single dose 10^−5 M; read-out: Growth inhibition (%)
readout: inhibition at 10 µM (%)
Answers are plain numbers, in %.

These solved cases illustrate the format of a correct answer.
[[record]]
compound = "CCN1CCN(C2C(=O)NC(c3cccc([N+](=O)[O-])c3)c3sc4c(F)cccc4c32)CC1 (stereo not shown) [Compound 6a]"
readout = "inhibition at 10 µM"
recorded_measurement = 0.35

[[record]]
compound = "COc1ccc(C2NC(=O)C(Cl)c3c2sc2c(F)cccc32)cc1 (stereo not shown) [Compound 4b]"
readout = "inhibition at 10 µM"
recorded_measurement = 11.1

[[record]]
compound = "O=C1NC(c2ccccc2[N+](=O)[O-])c2sc3c(F)cccc3c2C1Cl (stereo not shown) [Compound 4c]"
readout = "inhibition at 10 µM"
recorded_measurement = -6.23

[[record]]
compound = "COc1ccc(C2NC(=O)C(C#N)c3c2sc2c(F)cccc32)c(OC)c1 (stereo not shown) [Compound 5a]"
readout = "inhibition at 10 µM"
recorded_measurement = 74.8

[[record]]
compound = "COc1ccc(C2NC(=O)C(Cl)c3c2sc2c(F)cccc32)c(OC)c1 (stereo not shown) [Compound 4a]"
readout = "inhibition at 10 µM"
recorded_measurement = 14.9


Dear colleague, could you send me inhibition at 10 µM for each of the items below? Thanks.
1. O=C1C(=Cc2ccccc2[N+](=O)[O-])Sc2c(F)cccc21 [Compound 2c]
2. O=[N+]([O-])c1cccc(C2NC(Cl)=C(Cl)c3c2sc2c(F)cccc32)c1 (stereo not shown) [Compound 7a]
3. COc1ccc(C2NC(=O)C(C#N)c3c2sc2c(F)cccc32)cc1 (stereo not shown) [Compound 5b]
4. N#CC1C(=O)NC(c2cccc([N+](=O)[O-])c2)c2sc3c(F)cccc3c21 (stereo not shown) [Compound 5d]
5. O=C1NC(c2cccc([N+](=O)[O-])c2)c2sc3c(F)cccc3c2C1Cl (stereo not shown) [Compound 4d]

[55.1, 3.36, 68.8, 17.3, -0.03]

###

# Tested on: DU-145
# experimental protocol: NCI-60 SRB screen;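 note: half-maximal inhibitory concentration read as cell viability unlike GI50 net growth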
# Format: cell-based, human
# condition description: Homo sapiens; DU-145; five dose
readout: pIC50
Numbers only, as −log10 of the molar value.

// returns reported pIC50 for input N#CC1C(=O)NC(c2ccccc2[N+](=O)[O-])c2sc3c(F)cccc3c21 (stereo not shown) 4.72

###

# Test system: MDA-MB-435
# experimental protocol: NCI-60 SRB screen
# Type: cell-based
# condition description: Homo sapiens, MDA-MB-435, read-out: Growth inhibition (%)
Please respond with reported inhibition at 10 µM for every item in the list.
Write the numeric value and append its unit.

A selection of reference data follows.
[[record]]
compound = "O=C1NC(c2cccc([N+](=O)[O-])c2)c2sc3c(F)cccc3c2C1N1CCCCC1 (centres unmarked) [Compound 6c]"
recorded_measurement = "-8.63%"

[[record]]
compound = "N#CC1C(=O)NC(c2cccc([N+](=O)[O-])c2)c2sc3c(F)cccc3c21 (centres unmarked) [Compound 5d]"
recorded_measurement = "-6.69%"

[[record]]
compound = "N#CC1=C(Cl)NC(c2cccc([N+](=O)[O-])c2)c2sc3c(F)cccc3c21 (centres unmarked) [Compound 7b]"
recorded_measurement = "-8.18%"

[[record]]
compound = "COc1ccc(C2NC(=O)C(C#N)c3c2sc2c(F)cccc32)c(OC)c1 (centres unmarked) [Compound 5a]"
recorded_measurement = "-129%"

[[record]]
compound = "CCN1CCN(C2=C(C#N)c3c(sc4c(F)cccc34)C(c3cccc([N+](=O)[O-])c3)N2)CC1 (centres unmarked) [Compound 8d]"
recorded_measurement = "-7.84%"


// batch mode: one inhibition at 10 µM value per listed entry
1. O=C1C(=Cc2ccccc2[N+](=O)[O-])Sc2c(F)cccc21 [Compound 2c]
2. N#CC1=C(N2CCCCC2)NC(c2cccc([N+](=O)[O-])c2)c2sc3c(F)cccc3c21 (centres unmarked) [Compound 8f]

["-12.1%", "-6.93%"]

I would be grateful if you could share the reported inhibition at 10 µM for N#CC1=C(Nc2ccccc2F)NC(c2cccc([N+](=O)[O-])c2)c2sc3c(F)cccc3c21 (centres unmarked) [Compound 10] . -4.45%

###

# Tested on: MDA-MB-435
# experimental protocol: NCI-60 SRB screen
# Format: cell-based
# condition description: Homo sapiens, MDA-MB-435, read-out: Growth inhibition (%)
readout: inhibition at 10 µM

Worked examples, 3 compounds total:
[[record]]
compound = "O=[N+]([O-])c1cccc(C2NC3=C(Nc4ccccc4N3)c3c2sc2c(F)cccc32)c1 (stereo not shown)"
readout = "inhibition at 10 µM"
recorded_measurement = "-7%"

[[record]]
compound = "O=[N+]([O-])c1cccc(C2NC(Cl)=C(Cl)c3c2sc2c(F)cccc32)c1 (stereo not shown)"
readout = "inhibition at 10 µM"
recorded_measurement = "-9.15%"

[[record]]
compound = "O=C1NC(c2ccccc2[N+](=O)[O-])c2sc3c(F)cccc3c2C1Cl (stereo not shown)"
readout = "inhibition at 10 µM"
recorded_measurement = "-7.17%"


# returns recorded inhibition at 10 µM (system: MDA-MB-435) for COc1ccc(C2NC(=O)C(Cl)c3c2sc2c(F)cccc32)c(OC)c1 (stereo not shown) 8.55%

Numbers sourced from paper PMC8330742.
